Tested on: carrageenan-induced rat paw edema
Test: Carrageenan-induced rat paw edema model
Format: in vivo
Conditions: Rattus norvegicus; 2.5 mg/kg, 3 h
Description: The Carrageenan-induced rat paw edema model was used to assess the anti-inflammatory potential of novel compounds 8–14. […] In order to quantify the anti-inflammatory effects of the tested compounds, left paw thickness was measured at specific time points: prior to inflammation induction (moment 0) and 1, 2, 3, and 4 h (moments 1, 2, 3, and 4) following carrageenan injection. Tissue thickness was measured in the middle of the rat paw using a Digital Vernier caliper (Aerospace, China). […]
Give inhibition in vivo at 2.5 mg/kg for every item shown.
One number for each entry, in %.

# substance_smiles, experimental_value
data = [
    ("COc1ccc2cc([C@H](C)C(=O)NC(=S)Nc3ccccc3)ccc2c1", 26.1),
    ("COc1ccc2cc([C@H](C)C(=O)O)ccc2c1", 26.1),
    ("COc1ccc2cc([C@H](C)C(=O)NC(=S)Nc3ccccc3F)ccc2c1", 24.3),
    ("COc1ccc2cc([C@H](C)C(=O)NC(=S)Nc3ccc(C)cc3)ccc2c1", 35.1),
]

For record `COc1ccc2cc([C@H](C)C(=O)NC(=S)Nc3ccccc3C)ccc2c1` the listed inhibition in vivo at 2.5 mg/kg is 13.5

====

Test system: carrageenan-induced rat paw edema
Test: Carrageenan-induced rat paw edema model
Type: in vivo
Details: 10.0 mg/kg, 4 h after carrageenan; mean ± SD
Experimental: The Carrageenan-induced rat paw edema model was used to assess the anti-inflammatory potential of novel compounds 8–14. […] In order to quantify the anti-inflammatory effects of the tested compounds, left paw thickness was measured at specific time points: prior to inflammation induction (moment 0) and 1, 2, 3, and 4 h (moments 1, 2, 3, and 4) following carrageenan injection. Tissue thickness was measured in the middle of the rat paw using a Digital Vernier caliper (Aerospace, China). […]
quantity: Rat Paw Thickness (mm)
Answers are plain numbers, in mm.

Solved cases (3 shown):
# substance_smiles, target_system, Rat Paw Thickness (mm)
records = [
    ("COC(=O)[C@H](Cc1ccccc1)NC(=S)NC(=O)[C@@H](C)c1ccc2cc(OC)ccc2c1", "carrageenan-induced rat paw edema", 5.80),
    ("COc1ccc2cc([C@H](C)C(=O)NC(=S)Nc3ccc(C)cc3)ccc2c1", "carrageenan-induced rat paw edema", 5.05),
    ("COC(=O)[C@H](Cc1c[nH]c2ccccc12)NC(=S)NC(=O)[C@@H](C)c1ccc2cc(OC)ccc2c1", "carrageenan-induced rat paw edema", 5.67),
]

# per-item lookup of Rat Paw Thickness; items listed below
1. COc1ccc2cc([C@H](C)C(=O)NC(=S)Nc3ccccc3F)ccc2c1
2. COc1ccc2cc([C@H](C)C(=O)NC(=S)Nc3ccccc3OC)ccc2c1
3. COc1ccc2cc([C@H](C)C(=O)NC(=S)Nc3ccccc3)ccc2c1
4. COc1ccc2cc([C@H](C)C(=O)NC(=S)Nc3ccccc3C)ccc2c1

1. 5.17
2. 6.17
3. 5.07
4. 5.20

For record `COc1ccc2cc([C@H](C)C(=O)O)ccc2c1` the listed Rat Paw Thickness is 4.95

====

System: healthy male rats
Test: Acute oral toxicity assessment (OECD Guidelines No. 423)
Assay type: in vivo, rat
Conditions: single per os dose 10 mg/kg, sacrifice after 14 days, (absolute organ weight × 100%)/body weight
Use class 1 when the recorded Relative organ weight, Heart is no lower than 0.3; use class 0 when it is lower.

# example entries with known answers
# compound, class_name
measured = [
    ("COc1ccc2cc([C@H](C)C(=O)NC(=S)Nc3ccccc3F)ccc2c1 [Compound 12]", "class 1"),
    ("COc1ccc2cc([C@H](C)C(=O)NC(=S)Nc3ccccc3)ccc2c1 [Compound 8]", "class 1"),
    ("COc1ccc2cc([C@H](C)C(=O)NC(=S)Nc3ccccc3C)ccc2c1 [Compound 10]", "class 1"),
    ("COc1ccc2cc([C@H](C)C(=O)NC(=S)Nc3ccccc3OC)ccc2c1 [Compound 11]", "class 1"),
    ("COc1ccc2cc([C@H](C)C(=O)NC(=S)Nc3ccc(C)cc3)ccc2c1 [Compound 9]", "class 0"),
]

In the following, a different compound is considered.
Evaluate COC(=O)[C@H](Cc1c[nH]c2ccccc12)NC(=S)NC(=O)[C@@H](C)c1ccc2cc(OC)ccc2c1 [Compound 14] : Relative organ weight, Heart at minimum 0.3?
class 1

====

Give IC50 for every item shown.
Tested on: HCT 116
Experiment: MTT cytotoxicity assay, HCT 116
Format: cell-based, human
Conditions: Homo sapiens, HCT-116, 24 h, mean ± SD

Solved cases (3 shown):
# substance_smiles, IC50
rows = [
    ("COc1ccc2cc([C@H](C)C(=O)NC(=S)Nc3ccccc3)ccc2c1", "> 200 µM"),
    ("COc1ccc2cc([C@H](C)C(=O)O)ccc2c1", "> 200 µM"),
    ("COc1ccc2cc([C@H](C)C(=O)NC(=S)Nc3ccccc3C)ccc2c1", "120 µM"),
]

# per-item lookup of IC50; items listed below
1. COC(=O)[C@H](Cc1c[nH]c2ccccc12)NC(=S)NC(=O)[C@@H](C)c1ccc2cc(OC)ccc2c1
2. COc1ccc2cc([C@H](C)C(=O)NC(=S)Nc3ccccc3F)ccc2c1
3. COC(=O)[C@H](Cc1ccccc1)NC(=S)NC(=O)[C@@H](C)c1ccc2cc(OC)ccc2c1
4. COc1ccc2cc([C@H](C)C(=O)NC(=S)Nc3ccc(C)cc3)ccc2c1

1. 150 µM
2. > 200 µM
3. > 200 µM
4. > 200 µM

For record `COc1ccc2cc([C@H](C)C(=O)NC(=S)Nc3ccccc3OC)ccc2c1` the listed IC50 is > 200 µM

====

Target: COX-2 (Homo sapiens, UniProt P35354)
Construct: purchased Abcam
Sequence (P35354 18-604): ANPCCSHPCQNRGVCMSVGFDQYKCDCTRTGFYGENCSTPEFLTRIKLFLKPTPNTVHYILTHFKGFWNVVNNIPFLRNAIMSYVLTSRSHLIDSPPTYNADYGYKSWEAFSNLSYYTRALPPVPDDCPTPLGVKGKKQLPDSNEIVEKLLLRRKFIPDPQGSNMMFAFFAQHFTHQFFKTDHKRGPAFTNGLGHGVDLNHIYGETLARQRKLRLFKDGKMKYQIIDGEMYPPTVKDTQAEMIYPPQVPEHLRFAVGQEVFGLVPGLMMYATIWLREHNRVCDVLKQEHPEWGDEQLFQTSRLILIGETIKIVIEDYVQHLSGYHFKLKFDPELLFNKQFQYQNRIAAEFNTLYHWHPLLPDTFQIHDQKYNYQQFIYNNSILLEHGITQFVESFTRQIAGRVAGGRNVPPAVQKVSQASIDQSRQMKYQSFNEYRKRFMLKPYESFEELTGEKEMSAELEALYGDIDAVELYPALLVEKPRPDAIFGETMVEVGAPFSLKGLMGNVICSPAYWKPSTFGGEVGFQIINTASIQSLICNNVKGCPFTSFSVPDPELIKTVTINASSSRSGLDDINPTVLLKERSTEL
Experiment: Fluorometric COX-2 inhibitor screening kit
Type: biochemical
Settings: mean of two measurements with standard error, read-out: COX-2 Percent of Inhibition
Use label 1 when the recorded inhibition at 10 µM is no lower than 30%; use label 0 when it is lower.

# example entries with known answers
# substance_smiles, class_name
records = [
    ("COc1ccc2cc([C@H](C)C(=O)NC(=S)Nc3ccc(C)cc3)ccc2c1", "label 0"),
    ("COc1ccc2cc([C@H](C)C(=O)NC(=S)Nc3ccccc3C)ccc2c1", "label 0"),
    ("COc1ccc2cc([C@H](C)C(=O)NC(=S)Nc3ccccc3)ccc2c1", "label 1"),
    ("COc1ccc2cc([C@H](C)C(=O)NC(=S)Nc3ccccc3F)ccc2c1", "label 0"),
    ("COC(=O)[C@H](Cc1ccccc1)NC(=S)NC(=O)[C@@H](C)c1ccc2cc(OC)ccc2c1", "label 0"),
]

In the following, a different compound is considered.
Evaluate `COc1ccc2cc([C@H](C)C(=O)NC(=S)Nc3ccccc3OC)ccc2c1` : inhibition at 10 µM at minimum 30%?
label 0

====

Tested on: carrageenan-induced rat paw edema
Assay: Carrageenan-induced rat paw edema model
Format: in vivo
Settings: Rattus norvegicus; 2.5 mg/kg, 3 h
Protocol: The Carrageenan-induced rat paw edema model was used to assess the anti-inflammatory potential of novel compounds 8–14. […] In order to quantify the anti-inflammatory effects of the tested compounds, left paw thickness was measured at specific time points: prior to inflammation induction (moment 0) and 1, 2, 3, and 4 h (moments 1, 2, 3, and 4) following carrageenan injection. Tissue thickness was measured in the middle of the rat paw using a Digital Vernier caliper (Aerospace, China). […]
quantity: inhibition in vivo at 2.5 mg/kg (%)
Numbers only, in %.

# substance_smiles, inhibition in vivo at 2.5 mg/kg [%]
measured = [
    ("COC(=O)[C@H](Cc1c[nH]c2ccccc12)NC(=S)NC(=O)[C@@H](C)c1ccc2cc(OC)ccc2c1", 18.9),
]

# per-item lookup of inhibition in vivo at 2.5 mg/kg; items listed below
1. COc1ccc2cc([C@H](C)C(=O)NC(=S)Nc3ccccc3OC)ccc2c1
2. COC(=O)[C@H](Cc1ccccc1)NC(=S)NC(=O)[C@@H](C)c1ccc2cc(OC)ccc2c1

31.5
22.5
